assay: TarO Biochemical Enzymatic Assay: The TarO biochemical enzymatic assay is a liquid chromatography-mass spectroscopy (LC-MS) based end point assay that measures C55-P-P-GlcNAc (LIPID III) production. The TarO biochemical enzymatic assay was performed in a 384-well microtiter plate (Labcyte) with a reaction volume of 20 μl. The reaction mix contained 0.1 μgs/μl of TarO membrane preparation derived from MRSA COL (lysostaphin/lysozyme treated, centrifuged at 40K rpm, and re-suspended in 50 mM Tris pH 7.5, 10 mM MgCl2), 1500 μM UDP-GlcNAc, x 75 μM C55-P substrates in 83 mM Tris pH 8.0, 6.7 mM MgCl2, 6 mM CHAPS, and 8.3% DMSO buffer. The enzyme reactions were quenched by extraction in 40 μl of 1-pentanol containing 0.04 μM […] C55-PP-GlcNAc, which was used as an internal standard. A 10 μl volume of the quenched reaction mixture (pH≈3) from each well was injected onto a reversed-phase column (C4, 5 m, 2.1×50 mm, Thermo Scientific Biobacis-4) and eluted using a NH4Ac/H2O/MeOH gradient (solvent A: 10 mM NH4Ac in water, pH 5.6; solvent B: NH4Ac (1 M)-Isopropanol (1:90, v/v, pH 5.6). The HPLC conditions were as follows: 15% solvent B for 15 seconds followed by a gradient to 90% solvent B in 90 seconds; then solvent B was kept at 95% for 10 seconds followed by a gradient to 8% solvent B in 0.1 minute. The column was then equilibrated at 15% B for 1 minute before the next injection. The flow rate was kept constant at 600 μl/minute. Mass spectrometric detection was carried out in the negative-ion mode using selected reaction monitoring (SRM). Typical mass spectrometric conditions were as follows: heated capillary temperature, 210° C.; spray voltage, 2500 V; desolvation gas (N2), 40 l/h; auxiliary gas (N2), 35 l/h. Selected ion current (SIC) chromatograms of C55-PP-GlcNAc and internal standard 15C C55-PP-GlcNAc were plotted and integrated using LCQuan incorporated in Xcalibur software (ThermoFinnigan). The linearity of C55-PP-GlcNAc concentration versus mass spectrometric signal (AC55-PP-GlcNAc/A15C-C55-PP-GlcNAc) was determined with purified C55-PP-GlcNAc. The IC50 values were calculated using the nonlinear regression analysis (sigmoidal dose response fit allowing for a variable slope) of percent inhibition data with minimum and maximum values set to 0 and 100 percent.
pIC50: −log10 of the molar value.
// class 0 strictly below 7 in pIC50; class 1 otherwise

{"Molecule": "C[C@H]1[C@@H](c2cccc(F)c2)OC(=O)N1C(=O)CCc1cncc2ccccc12", "Label": "class 0"}
{"Molecule": "C[C@H]1[C@@H](c2cc(C(F)(F)F)cc(C(F)(F)F)c2)OC(=O)N1C(=O)CCc1cccc2ccncc12", "Label": "class 0"}
{"Molecule": "C[C@H]1[C@@H](c2cc(C(F)(F)F)cc(C(F)(F)F)c2)OC(=O)N1C(=O)NCc1cccc2ccnn12", "Label": "class 1"}
{"Molecule": "C[C@H]1[C@@H](c2cc(F)cc(C(F)(F)F)c2)OC(=O)N1C(=O)NCc1ccccc1C(F)(F)F", "Label": "class 1"}
{"Molecule": "COc1cc([C@H]2OC(=O)N(C(=O)NCc3cccc4cncnc34)[C@H]2CO)cc(C(F)(F)F)c1", "Label": "class 0"}
{"Molecule": "CCOc1cc([C@H]2OC(=O)N(C(=O)NCc3cccc4cncnc34)[C@H]2C)nc(C(F)(F)F)c1", "Label": "class 1"}
{"Molecule": "C[C@H]1[C@@H](c2cc(F)cc(C3CC3)c2)OC(=O)N1C(=O)NCc1cncc2ccccc12", "Label": "class 0"}
{"Molecule": "C[C@H]1[C@@H](c2cccc(C(F)F)c2)OC(=O)N1C(=O)NCc1cncc2ccccc12", "Label": "class 0"}
{"Molecule": "Cc1ccc2c(n1)N(CCC(=O)N1C(=O)O[C@H](c3cc(F)cc(C(F)(F)F)c3)[C@@H]1C)CCO2", "Label": "class 0"}
{"Molecule": "C[C@H]1[C@@H](c2cccc(C(C)(F)F)c2)OC(=O)N1C(=O)NCc1cncc2ccccc12", "Label": "class 0"}
{"Molecule": "C[C@H]1[C@@H](c2cc(C(F)(F)F)cc(C(F)(F)F)c2)OC(=O)N1C(=O)NCc1ncccc1Br", "Label": "class 0"}
{"Molecule": "O=C(CCc1cncc2ccccc12)N1CC(c2cc(C(F)(F)F)cc(C(F)(F)F)c2)OC1=O (stereo not drawn)", "Label": "class 0"}
{"Molecule": "COc1ccncc1CNC(=O)N1C(=O)O[C@H](c2cc(C(F)(F)F)cc(C(F)(F)F)c2)[C@@H]1CO", "Label": "class 0"}
{"Molecule": "C[C@H]1[C@@H](c2cc(C(F)(F)F)cc(C(F)(F)F)c2)OC(=O)N1C(=O)CCc1cccc2sccc12", "Label": "class 1"}
{"Molecule": "C[C@H]1[C@@H](c2cc(F)cc(C(F)(F)F)c2)OC(=O)N1C(=O)NCc1cccc2c1OCCO2", "Label": "class 1"}
{"Molecule": "C[C@H]1[C@@H](c2cc(C(F)(F)F)cc(C(F)(F)F)c2)OC(=O)N1C(=O)NCc1cncc2ccccc12", "Label": "class 1"}
{"Molecule": "COc1cc([C@H]2OC(=O)N(C(=O)NCc3cccc4nccnc34)[C@H]2CO)cc(C(F)(F)F)c1", "Label": "class 0"}
{"Molecule": "C[C@H]1[C@@H](c2cc(C(F)(F)F)cc(C(F)(F)F)c2)OC(=O)N1C(=O)CCc1cccc2ccccc12", "Label": "class 1"}
{"Molecule": "C[C@H]1[C@@H](c2cc(F)cc(C(F)(F)F)c2)OC(=O)N1C(=O)NCc1cccc2ccccc12", "Label": "class 1"}
{"Molecule": "C[C@H]1[C@@H](c2cc(C(F)(F)F)cc(C(F)(F)F)c2)OC(=O)N1C(=O)NCc1cccc2c1OCCO2", "Label": "class 1"}
{"Molecule": "C[C@H]1[C@@H](c2cc(F)cc(C(F)(F)F)c2)OC(=O)N1C(=O)NCc1ccccc1OC(F)F", "Label": "class 1"}
{"Molecule": "C[C@H]1[C@@H](c2cc(F)cc(C(F)(F)F)c2)OC(=O)N1C(=O)NCc1cccc2cncnc12", "Label": "class 0"}
{"Molecule": "C[C@H]1[C@@H](c2cc(F)cc(C(F)(F)F)c2)OC(=O)N1C(=O)NCc1ccnc2ccccc12", "Label": "class 0"}
{"Molecule": "C[C@H]1[C@@H](c2cc(C(F)(F)F)cc(C(F)(F)F)c2)OC(=O)N1C(=O)CCc1cccc2ncccc12", "Label": "class 0"}
{"Molecule": "C[C@H]1[C@@H](c2ccc(F)c(F)c2)OC(=O)N1C(=O)CCc1cncc2ccccc12", "Label": "class 0"}
{"Molecule": "Cc1cccc(OCC(=O)N2C(=O)O[C@H](c3cccc(C(F)(F)F)c3)[C@@H]2C)c1C", "Label": "class 0"}
